molecular target: HLA-DR DRB1*1501 (human); experiment: radioligand inhibition, purified HLA-DR
Kindly apply the following: Satisfied if IC50 is less than 90 nM, Not satisfied in every other case.

1) TTPVTGASPGGLREL [Her2/neu.126]	Not satisfied
2) KLCIYTDNSIRPEEL [Cyclin D1.123]	Satisfied
3) MRKIVATWMLEVCEE [Cyclin D1.56]	Satisfied
4) EALLESSLRQAQQNM [Cyclin D1.252]	Not satisfied
5) ICELHCPALVTYNTD [Her2/neu.263]	Not satisfied

Request: # check: IC50 < 90 nM for DNSIRPEELLQMELL [Cyclin D1.129]
Response: Not satisfied
